Assay Method Text: UWB1.289_BRCA1 ovarian cancer growth, cell-based, BGB or cisplatin combinations (AID 1671459)
Condition Parameters: UWB1.289 BRCA1 ovarian carcinoma, drug combinations, BGB combination, concentration series, at 5 µM, stronger effect = higher value
Mark MET for reported inhibition of 40% or greater; mark NOT MET for anything smaller.

Compound	Discrete Label
CC1OC(CC(=O)O)CC2=C1C(=O)c1c(O)cccc1C2=O (stereo unspecified)	MET
O=c1[nH]c(=S)[nH]c2nc(-c3ccccc3)c(-c3ccccc3)nc12	NOT MET

Enquiry: Assess whether reported inhibition for `Cc1cc(C)c(Nc2ccnc(Nc3ccc(C#N)cc3)n2)c(C)c1` sits at 40% or higher.
Return: MET

Enquiry: Assess whether reported inhibition for CC(=O)C1(O)Cc2c(O)c3c(c(O)c2C(OC2CC(N)C(O)C(C)O2)C1)C(=O)c1ccccc1C3=O (stereo unspecified) sits at 40% or higher.
Return: MET

Enquiry: Assess whether reported inhibition for NC(=O)c1cccc2[nH]c(-c3ccc(C4CCCN4)cc3F)nc12 (stereo unspecified) sits at 40% or higher.
Return: MET

Enquiry: Assess whether reported inhibition for Nc1ccn(C2CCC(CO)O2)c(=O)n1 (stereo unspecified) sits at 40% or higher.
Return: NOT MET

Enquiry: Assess whether reported inhibition for `Cc1ccc([N+](=O)[O-])cc1S(=O)(=O)N(C)/N=C\c1cnc2ccc(Br)cn12` sits at 40% or higher.
Return: MET

Enquiry: Assess whether reported inhibition for `Nc1nc(NC2CC2)cc(-c2cccc(Cl)c2Cl)n1` sits at 40% or higher.
Return: NOT MET

Enquiry: Assess whether reported inhibition for `Cc1cc(C)cc(C(=O)NOCCCCCC(=O)NO)c1` sits at 40% or higher.
Return: MET

Enquiry: Assess whether reported inhibition for O=c1[nH]c(=O)n(C2CC(O)C(CO)O2)cc1I (stereo unspecified) sits at 40% or higher.
Return: NOT MET

Enquiry: Assess whether reported inhibition for `CN(C)C(=S)NN=C(c1ccccn1)c1ccccn1` sits at 40% or higher.
Return: MET

Enquiry: Assess whether reported inhibition for `O=C(CCCCCCC(=O)Nc1ccc(I)cc1)NO` sits at 40% or higher.
Return: MET

Enquiry: Assess whether reported inhibition for C=CC1=C(C)C2=CC3=NC(=C(CC(=O)O)C4=NC(=C(C)C4=C(O)O)C=c4[nH]c(c(C)c4CC)=CC1=N2)C(CCC(=O)O)C3C (stereo unspecified) sits at 40% or higher.
Return: NOT MET

Enquiry: Assess whether reported inhibition for `C[n+]1ccc(-c2c3nc(c(-c4cc[n+](C)cc4)c4ccc([nH]4)c(-c4cc[n+](C)cc4)c4nc(c(-c5cc[n+](C)cc5)c5ccc2[nH]5)C=C4)C=C3)cc1` sits at 40% or higher.
Return: NOT MET

Enquiry: Assess whether reported inhibition for C=C1CCC(O)CC1=CC=C1CCCC2(C)C1CCC2C(C)C=CC(C)C(C)C (stereo unspecified) sits at 40% or higher.
Return: NOT MET

Enquiry: Assess whether reported inhibition for COc1cccc2c1C(=O)c1c(O)c3c(c(O)c1C2=O)CC(O)(C(=O)CO)CC3OC1CC(N)C(OC2CCCCO2)C(C)O1 (stereo unspecified) sits at 40% or higher.
Return: MET

Enquiry: Assess whether reported inhibition for `C[C@@H]1O[C@@H](O[C@@H]2[C@@H](O)[C@H](OCCc3ccc(O)c(O)c3)O[C@H](CO)[C@H]2OC(=O)C=Cc2ccc(O)c(O)c2)[C@H](O)[C@H](O)[C@H]1O` sits at 40% or higher.
Return: NOT MET

----------
Assay Method Text: galactose survival enhancers in mitochondrial complex I cybrids – cell-based, galactose medium, ATP luminescence, primary screen (AID 1645843);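 further: positive z means more ATP and so rescue of galactose-driven cybrid death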
Condition Parameters: complex I mutant cybrid cells, 72 h, stronger effect = higher value
Below is a list of entries, each paired with its recorded z-score value.
Please reply with the number alone, leaving off any unit.

Enquiry: Recorded z-score for CN1CCCC1CCNC(=O)c1cc(-c2ccccc2)cc(S(=O)(=O)N2CCSCC2)c1 (stereo unspecified) , please?
Return: 0.505

Enquiry: Recorded z-score for CCCCn1cc(-c2cc(C(=O)N3CCCC3C)c3cccc(C)c3n2)cn1 (stereo unspecified) , please?
Return: 1.28

Enquiry: Recorded z-score for COc1ccccc1OC(C)c1nc(Cc2cccc(C(F)(F)F)c2)no1 (stereo unspecified) , please?
Return: 0.51

Enquiry: Recorded z-score for `c1ccc(Cc2noc(-c3cccc4nccnc34)n2)cc1` , please?
Return: 2.6

Enquiry: Recorded z-score for `N[C@@H](CCC(=O)N[C@H](CSN=O)C(=O)NCC(=O)O)C(=O)O` , please?
Return: 0.335

Enquiry: Recorded z-score for `COc1ccc(NC(=O)/C=C/c2ccc(Cl)cc2)cc1` , please?
Return: 0.42

----------
Assay Method Text: viability loss with induced miR-34 in A549 – imaging, A549 dox-inducible miR-34, nuclei and caspase counts, primary screen (AID 1347080)
Condition Parameters: A549 miR-34 inducible, Hoechst nuclei count, 48 h; measured here: relative caspase fold change +Dox/-Dox
Classes by fold change: band 1 (below 0.6), band 2 (0.6 to below 1), band 3 (1 or more)

Consider the following illustrative entries.
>>> df
                                   compound  discrete_label
0     c1ccc2c(c1)CCC[C@H]2Nc1nc2ccccc2[nH]1          band 1
1  OCC1O[C@H](O)C(Cl)C(O)C1O (stereo not given in full)          band 3
2  CC(=O)N[C@@H]1[C@@H](O[C@H](C)C(=O)O)[C@H](O)[C@@H](CO)O[C@@H]1O          band 3

Enquiry: For the record `N=C(N)c1ccc(N)cc1` , report the class its fold change corresponds to.
Return: band 3

Enquiry: For the record `CS(=O)(=O)c1ccc(-n2nc(C(F)(F)F)cc2-c2ccc(F)cc2)cc1` , report the class its fold change corresponds to.
Return: band 2

Enquiry: For the record `COc1cc(=C2C=c3ccccc3=N2)[nH]c1=Cc1[nH]c(C)cc1C` , report the class its fold change corresponds to.
Return: band 2

Enquiry: For the record `CCCCC[C@H](O)/C=C/[C@@H]1[C@H]2C/C(=C/CCCC(=O)O)C[C@H]2C[C@H]1O` , report the class its fold change corresponds to.
Return: band 3

Enquiry: For the record CC1CS(=O)(=O)CCN1N=Cc1ccc([N+](=O)[O-])o1 (stereo not given) , report the class its fold change corresponds to.
Return: band 2

Enquiry: For the record NCC1OC(OC2C(CO)OC(OC3C(O)C(N)CC(N)C3OC3OC(CO)C(O)C(O)C3N)C2O)C(N)C(O)C1O (stereo not given) , report the class its fold change corresponds to.
Return: band 1

Enquiry: For the record CC(C)N(CCCNC(=O)Nc1ccc(C(C)(C)C)cc1)CC1OC(n2ccc3c(N)ncnc32)C(O)C1O (stereo not given) , report the class its fold change corresponds to.
Return: band 1

----------
Assay Method Text: drug combination growth inhibition, ovarian cancer – cell-based, oncology-focused library, rucaparib conditional, profiling panel (AID 1508598)
Condition Parameters: patient-derived ovarian cancer cells, CellTiter-Glo viability, 144 h; at 0.00488 µM; OCI-P5x cells; with rucaparib 20 µM; stronger effect = lower value; 100% = cells with rucaparib alone
Quantity Measured: viability (%)
API: value field is a number in %; no unit string.

Molecule	Assay Result
CO[C@H]1C[C@@H]2CC[C@@H](C)[C@@](O)(O2)C(=O)C(=O)N2CCCC[C@H]2C(=O)O[C@H]([C@@H](C)C[C@@H]2CC[C@@H](OCCO)[C@H](OC)C2)CC(=O)[C@H](C)/C=C(\C)[C@H](O)[C@@H](OC)C(=O)[C@H](C)C[C@H](C)/C=C/C=C/C=C/1C	85

Enquiry: Recorded viability for `CC(=O)OCC(=O)[C@]1(O)[C@H](C)C[C@H]2[C@@H]3CCC4=CC(=O)C=C[C@]4(C)[C@]3(F)[C@H](O)C[C@@]21C` , please?
Return: 110

----------
Assay Method Text: 75Q-TubH aggregate inhibition, S. cerevisiae, yeast (AID 1616)
Condition Parameters: S. cerevisiae 75Q-TubH polyglutamine aggregation suppression; stronger effect = higher value
Below is a list of entries, each paired with its recorded aggregation suppression score value.
Please reply with the number alone, leaving off any unit.

Compound	Quantity Measured	Assay Result
COc1ccc(CCC(=O)c2c(O)cc(O[C@@H]3O[C@H](CO)C(O)[C@H](O)C3O[C@@H]3O[C@@H](C)[C@H](O)[C@@H](O)[C@H]3O)cc2O)cc1O (stereo not given in full)	aggregation suppression score	1.25
NCC1CCC(N)C(OC2C(N)CC(N)C(OC3OC(CO)C(O)C(N)C3O)C2O)O1 (stereo not given)	aggregation suppression score	1.46
COc1ccc2c(c1OC)C(=O)O[C@H]2[C@@H]1c2ccccc2CCN1C	aggregation suppression score	19
O=c1c(O)cc2c(O)oc3c(=O)c(O)cc4c3c2c1CC=4O	aggregation suppression score	0.786

Enquiry: Recorded aggregation suppression score for C[C@]12CCC3c4ccc(OC(=O)CCC(=O)O)cc4CCC3C1CCC2=O (stereo not given in full) , please?
Return: 0.711

Attribution: PubChem BioAssay
